Recorded CREATINE PHOSPHOKINASE values for a group of compounds are listed next.
# Organism: Rattus norvegicus
# protocol-details: DrugMatrix - Regimen: Daily Repeat
# Type: toxicity, organism-based, Sprague-Dawley
# Set-up: regimen Daily Repeat, gender Male, age 6-8 weeks
# applied-conditions: in vivo, iv, 0 mg/kg, 120 h, tissue Plasma, dose level Control, time 5 day, vehicle 100 % SALINE
parameter: CREATINE PHOSPHOKINASE (u/L)

- smiles: "CC1(C)S[C@@H]2[C@H](NC(=O)[C@H](NC(=O)N3CCNC3=O)c3ccccc3)C(=O)N2[C@H]1C(=O)O"
  parameter: "CREATINE PHOSPHOKINASE"
  meas-value: 331.33
- smiles: "NCC[C@H](O)C(=O)N[C@@H]1C[C@H](N)[C@@H](O[C@H]2O[C@H](CN)[C@@H](O)[C@H](O)[C@H]2O)[C@H](O)[C@H]1O[C@H]1O[C@H](CO)[C@@H](O)[C@H](N)[C@H]1O"
  parameter: "CREATINE PHOSPHOKINASE"
  meas-value: 419
- smiles: "CN(N=O)C(=O)N[C@@H](C=O)[C@@H](O)[C@H](O)[C@H](O)CO"
  parameter: "CREATINE PHOSPHOKINASE"
  meas-value: 550.33
- smiles: "CC[C@@]1(O)C(=O)OCc2c1cc1n(c2=O)Cc2cc3ccccc3nc2-1"
  parameter: "CREATINE PHOSPHOKINASE"
  meas-value: 242.67

----------
# Species on record: Rattus norvegicus
# protocol-details: DrugMatrix - Regimen: Daily Repeat
# Type: toxicity, organism-based, Sprague-Dawley
# Design: regimen Daily Repeat, gender Male, age 6-8 weeks
# applied-conditions: in vivo, po, 0 mg/kg, 72 h, tissue Blood, route oral GAVAGE, dose level Control, time 3 day, vehicle .5 % CMC
Form field: ABSOLUTE EOSINOPHIL (one value per entry).

- molecule: "CC(C)[C@H](N)C(=O)OCCOCn1cnc2c(=O)[nH]c(N)nc21 [VALACYCLOVIR]"
  ABSOLUTE EOSINOPHIL / CELLS/uL: 171.33
- molecule: "COc1c(C)c2c(c(O)c1C/C=C(\\C)CCC(=O)OCCN1CCOCC1)C(=O)OC2 [MYCOPHENOLATE MOFETIL]"
  ABSOLUTE EOSINOPHIL / CELLS/uL: 0
- molecule: "O=c1[nH]cc(F)c(=O)[nH]1 [FLUOROURACIL]"
  ABSOLUTE EOSINOPHIL / CELLS/uL: 130.33
- molecule: "CC1(C)[C@H]2CC[C@]1(C)C(=O)C2 [(-)-CAMPHOR]"
  ABSOLUTE EOSINOPHIL / CELLS/uL: 222.83
- molecule: "CCOC(=O)OC(C)OC1=C(C(=O)Nc2ccccn2)N(C)S(=O)(=O)c2ccccc21 (stereo not given) [AMPIROXICAM]"
  ABSOLUTE EOSINOPHIL / CELLS/uL: 15.17

----------
# Organism: Rattus norvegicus
# protocol-details: DrugMatrix - Regimen: Daily Repeat
# Type: toxicity, organism-based, Sprague-Dawley
# Parameters: regimen Daily Repeat, gender Male, age 6-8 weeks
# applied-conditions: in vivo, po, 0 mg/kg, 72 h, tissue Blood, route oral GAVAGE, dose level Control, time 3 day, vehicle .5 % CMC
parameter: ERYTHROCYTE COUNT (x10E6/uL)

- molecule: "COc1c(C)c2c(c(O)c1C/C=C(\\C)CCC(=O)OCCN1CCOCC1)C(=O)OC2 [MYCOPHENOLATE MOFETIL]"
  unit-spec: "x10E6/uL"
  meas-value: 5.51
- molecule: "COC(=O)c1ccc(O)cc1"
  unit-spec: "x10E6/uL"
  meas-value: 5.57
- molecule: "CC[C@H]1OC(=O)[C@H](C)[C@@H](O[C@H]2C[C@@](C)(OC)[C@@H](O)[C@H](C)O2)[C@H](C)[C@@H](O[C@@H]2O[C@H](C)C[C@H](N(C)C)[C@H]2O)[C@](C)(O)C[C@@H](C)/C(=N\\OCOCCOC)[C@H](C)[C@@H](O)[C@]1(C)O"
  unit-spec: "x10E6/uL"
  meas-value: 6.96
- molecule: "O=c1[nH]cc(F)c(=O)[nH]1"
  unit-spec: "x10E6/uL"
  meas-value: 5.22
- molecule: "CN1CCC[C@@H]1CCO[C@](C)(c1ccccc1)c1ccc(Cl)cc1"
  unit-spec: "x10E6/uL"
  meas-value: 5.51
- molecule: "CCc1cccc2c3c([nH]c12)C(CC)(CC(=O)O)OCC3 (centres undefined)"
  unit-spec: "x10E6/uL"
  meas-value: 6.96
- molecule: "Brc1ccccc1"
  unit-spec: "x10E6/uL"
  meas-value: 5.53
- molecule: "C=C1CC[C@H](O)C/C1=C/C=C1\\CCC[C@]2(C)[C@@H]([C@H](C)/C=C/[C@H](C)C(C)C)CC[C@@H]12"
  unit-spec: "x10E6/uL"
  meas-value: 5.22
- molecule: "CCOC(=O)OC(C)OC1=C(C(=O)Nc2ccccn2)N(C)S(=O)(=O)c2ccccc21 (centres undefined)"
  unit-spec: "x10E6/uL"
  meas-value: 5.53
- molecule: "CC(/C=C1\\SC(=S)N(CC(=O)O)C1=O)=C\\c1ccccc1"
  unit-spec: "x10E6/uL"
  meas-value: 5.51
- molecule: "O=C1CCc2cc(OCCCCc3nnnn3C3CCCCC3)ccc2N1"
  unit-spec: "x10E6/uL"
  meas-value: 7.15
- molecule: "CC(C)[C@H](N)C(=O)OCCOCn1cnc2c(=O)[nH]c(N)nc21"
  unit-spec: "x10E6/uL"
  meas-value: 5.56
- molecule: "NCC(=O)O"
  unit-spec: "x10E6/uL"
  meas-value: 6.34
- molecule: "Cc1c(-c2ccccc2)oc2c(C(=O)OCCN3CCCCC3)cccc2c1=O [FLAVOXATE]"
  unit-spec: "x10E6/uL"
  meas-value: 5.45

----------
# Organism: Rattus norvegicus
# protocol-details: DrugMatrix - Regimen: Daily Repeat
# Assay type: toxicity, organism-based, Sprague-Dawley
# Parameters: regimen Daily Repeat, gender Male, age 6-8 weeks
# applied-conditions: in vivo, po, 0 mg/kg, 120 h, tissue Plasma, route oral GAVAGE, dose level Control, time 5 day, vehicle .5 % CMC
Mark Condition met for TOTAL BILIRUBIN under 0.2 mg/dL, Condition not met if at or over.

- compound: "NCC(=O)O"
  classification: "Condition not met"
- compound: "COC(=O)c1ccc(O)cc1"
  classification: "Condition met"
- compound: "Cc1c(-c2ccccc2)oc2c(C(=O)OCCN3CCCCC3)cccc2c1=O [FLAVOXATE]"
  classification: "Condition met"
- compound: "O=c1cc(-c2ccccc2)oc2c1ccc1ccccc12"
  classification: "Condition met"
- compound: "CCC[C@@H]1C[C@@H](C(=O)N[C@@H]([C@H]2O[C@H](SC)[C@H](O)[C@@H](O)[C@H]2O)[C@@H](C)O)N(C)C1"
  classification: "Condition met"
- compound: "O=C1CCc2cc(OCCCCc3nnnn3C3CCCCC3)ccc2N1"
  classification: "Condition not met"
- compound: "C[C@]12CCC(=O)C=C1CC[C@@H]1[C@@H]2C(=O)C[C@@]2(C)[C@H]1CC[C@]2(O)C(=O)CO"
  classification: "Condition not met"
- compound: "Brc1ccccc1"
  classification: "Condition met"
- compound: "O=c1[nH]cc(F)c(=O)[nH]1"
  classification: "Condition not met"

----------
# Species: Rattus norvegicus
# protocol-details: DrugMatrix - Regimen: Daily Repeat
# Format: toxicity, organism-based, Sprague-Dawley
# Parameters: regimen Daily Repeat, gender Male, age 6-8 weeks
# applied-conditions: in vivo, po, 0 mg/kg, 120 h, tissue Plasma, route oral GAVAGE, dose level Control, time 5 day, vehicle .5 % CMC

- compound: "O=C1CCc2cc(OCCCCc3nnnn3C3CCCCC3)ccc2N1"
  PHOSPHORUS (mg/dL): 12.07
- compound: "CC(C)[C@H](N)C(=O)OCCOCn1cnc2c(=O)[nH]c(N)nc21"
  PHOSPHORUS (mg/dL): 11.87
- compound: "CCOC(=O)OC(C)OC1=C(C(=O)Nc2ccccn2)N(C)S(=O)(=O)c2ccccc21 (stereo unspecified)"
  PHOSPHORUS (mg/dL): 12
- compound: "CN1C(C(=O)Nc2ccccn2)=C(O)c2ccccc2S1(=O)=O"
  PHOSPHORUS (mg/dL): 10.87
- compound: "Brc1ccccc1"
  PHOSPHORUS (mg/dL): 12
- compound: "CC1(C)[C@H]2CC[C@]1(C)C(=O)C2 [(-)-CAMPHOR]"
  PHOSPHORUS (mg/dL): 11.48
- compound: "C[C@]12CCC(=O)C=C1CC[C@@H]1[C@@H]2C(=O)C[C@@]2(C)[C@H]1CC[C@]2(O)C(=O)CO"
  PHOSPHORUS (mg/dL): 11.8
- compound: "NCC(=O)O"
  PHOSPHORUS (mg/dL): 9.53
- compound: "COc1c(C)c2c(c(O)c1C/C=C(\\C)CCC(=O)OCCN1CCOCC1)C(=O)OC2 [MYCOPHENOLATE MOFETIL]"
  PHOSPHORUS (mg/dL): 12.3
- compound: "Cc1c(-c2ccccc2)oc2c(C(=O)OCCN3CCCCC3)cccc2c1=O [FLAVOXATE]"
  PHOSPHORUS (mg/dL): 11.93
- compound: "O=c1[nH]cc(F)c(=O)[nH]1"
  PHOSPHORUS (mg/dL): 11.17
